Reference source: ChEMBL document CHEMBL1201862

# Tested on: Malme-3M
# testSummary: NCI tumour cell line growth inhibition, 48 h
The source made the active and inactive calls. Cut-off read from the data, not from the text of the source: active = GI50 up to about 1.1 µM and inactive = higher.
recordedEndpoint: GI50

compound	measuredTarget	result
COc1ccc(CCn2nccc2C)cc1	Malme-3M	> 100 µM (inactive)
NCCCCCC(CCN)SCC1OC(n2cnc3c(N)ncnc32)C(O)C1O (configuration not stated)	Malme-3M	> 1280 µM (inactive)
CC(C)(C)[Si](C)(C)O/N=C\c1ccc(O[Si](C)(C)C(C)(C)C)cc1	Malme-3M	> 100 µM (inactive)
CCOC(=O)/C(C#N)=C\C=C1/C=CN=C2NCCN21	Malme-3M	> 100 µM (inactive)
C[n+]1c2ccccc2c(CNCC(=O)O)c2ccccc21	Malme-3M	11.9 µM (inactive)
CC(=O)Oc1ccc2oc(=O)cc(C)c2c1	Malme-3M	> 100 µM (inactive)
C[n+]1cccc2ccc(OC(=O)c3ccccc3)cc21	Malme-3M	> 100 µM (inactive)

---

# Tested on: MOLT-4
# testSummary: NCI tumour cell line growth inhibition, 48 h
Calls of active or inactive are those of the source. No stated cut-off is given here; in the data, active = GI50 up to about 1.1 µM and inactive = higher.
Outcomes: Yes (active), No (inactive)

compound	classAssignment
C#CC1(O)C(COP(=O)(O)OCC2OC(n3ccc(NCCCCCCCCCCCCCCCCCC)nc3=O)C(O)C2O)OC(n2ccc(N)nc2=O)C1O (stereo not given)	Yes
O=C1CN(c2ccccc2)C(=O)CN1NCNN1CC(=O)N(c2ccccc2)CC1=O	No
O=C1c2ccccc2CC12CCC1(CC2)OCCO1	No
O=C(OCCO)C1CC2CC1C1(C2)OCCO1 (stereo not given)	No
CC(=O)N1CN2C(=O)CCC2c2ccccc21 (stereo not given)	No

---

// reported GI50 per item
# System: 786-0
# testSummary: NCI tumour cell line growth inhibition, 48 h
Activity calls are given as the source filed them. Cut-off read from the data, not from the text of the source: active = GI50 up to about 1.1 µM and inactive = higher. Where a SMILES comes first, the peptide text is derived from it. [ ]: non-standard residue; d: D form. Hiv = CC(C)[C@H](O)C(=O)O

compound	measuredTarget	GI50
C=C[C@@]1(C)CC2(C=C(CO)C(O)O2)Oc2c1c(=O)oc1cccc(C)c21 (stereo partly specified)	786-0	1.98 µM (inactive)
COc1cc2ccn3c4cc(OC)c(OC)cc4cc3c2cc1OC	786-0	33.5 µM (inactive)
COC(=O)C(C(=O)C(=O)Nc1ccc(C(F)(F)F)cc1[N+](=O)[O-])c1csc(-n2nc(-c3ccccc3)cc2-c2ccccc2)n1 (stereo unspecified)	786-0	> 100 µM (inactive)
O=C1CN(c2ccccc2)C(=O)CN1NCNN1CC(=O)N(c2ccccc2)CC1=O	786-0	> 100 µM (inactive)
O=C1O/C(=C\c2ccc(O)cc2)C(c2ccc(O)c(Cl)c2)=C1Cl	786-0	50.2 µM (inactive)
c1cc2c(cc1C1=NCCN1)c1cc(C3=NCCN3)ccc1n2CC1CCCCC1	786-0	19.4 µM (inactive)
CC(C)CC1N=C(OCc2ccccc2)OC1=O (stereo unspecified)	786-0	> 100 µM (inactive)
CC1(C)CSCC(C)(C)C(=N/N)/C1=N\N	786-0	> 100 µM (inactive)
CCCc1nnc2sc(COc3ccc(OCc4nn5c(CCC)nnc5s4)c(Cl)c3)nn12	786-0	28.5 µM (inactive)
CC(C)OC(=O)c1ccc(NCc2cc(O)ccc2O)cc1	786-0	2.84 µM (inactive)
Cc1ccc(S(=O)(=O)C2CC2(Cl)Cl)cc1 (stereo unspecified)	786-0	20.7 µM (inactive)
COc1ccc(/C=N/NC(=S)Nc2cc(C)ccc2OC)cc1	786-0	22.7 µM (inactive)
Cc1cc2c(C(C)C)c(O)c(O)c(/C=N\CCO)c2c(O)c1-c1c(C)cc2c(C(C)C)c(O)c(O)c(/C=N/CCO)c2c1O	786-0	2.1 µM (inactive)
Cc1ccc2c(=O)c(C(=O)N(CCO)CCO)c[nH]c2n1	786-0	> 100 µM (inactive)
COc1ccc(-c2nc3c(nc2-c2ccc(OC)cc2)N(C)S(=O)(=O)N=C3N)cc1	786-0	16.9 µM (inactive)
C[n+]1c2ccccc2c(CNCC(=O)O)c2ccccc21	786-0	1.17 µM (inactive)
Cc1ccc(C2=CC(=O)c3ccccc3C2=O)n1-c1ccccc1	786-0	> 100 µM (inactive)
Cc1ccc(NC(=O)c2cc(S(=O)(=O)Nc3n[nH]c(=O)n3-c3ccccc3)c(S)cc2Cl)cc1	786-0	> 100 µM (inactive)
O=C(O)c1cccc(Nc2c(C(=O)O)cccc2[N+](=O)[O-])c1	786-0	> 100 µM (inactive)
CC(C)[C@@H]1OC(=O)[C@@H](C)NC(=O)[C@@H]2CCCN2C1=O (cyclo([Hiv]-Pro-[dA]))	786-0	> 100 µM (inactive)
CCc1nc2ccccc2c(=O)n1/N=C(\N=N\c1ccc(Cl)cc1)c1ccccc1Cl	786-0	67.8 µM (inactive)
